# Experiment summary: Inhibition of aggregation of amyloid beta (17 to 40) assessed as fibril formation at 100 uM measured up to 10 hrs by turbidimetry assay
Activity calls are given as the source filed them. The rule behind the calls is not given here.
Measurement name: inhibition

Here's what some known entries look like.
Compound	inhibition
CCCCC(CC)CNC(=N)NC(=N)NCCCCCCNC(=N)NC(=N)NCC(CC)CCCC.Cl.Cl (stereo not given) [ALEXIDINE DIHYDROCHLORIDE]	Active
Cc1nc2sc3c(c2c(=O)o1)CCCC3	Active
O=S(=O)(Nc1ccc(N2CCCCC2)cc1)c1cc(Cl)sc1Cl	Active
Nc1c(S(=O)(=O)c2ccc(Cl)cc2)cnc2cc(-c3ccccc3)nn12	Active

Okay, next one:
Query block: Sample O=C(Nc1ccccc1)Nc1ccc(Cl)cc1[N+](=O)[O-] — what was its inhibition?
Result block: Active

====

# Experiment summary: Inhibition of aggregation of amyloid beta (17 to 40) assessed as fibril formation at 100 uM measured up to 24 hrs by transmission electron microscopic analysis
Activity calls are given as the source filed them. The calls are words filed in the database; no cut-off is given here.
Measurement name: inhibition

Here's what some known entries look like.
Compound	Reported
Cc1nc2sc3c(c2c(=O)o1)CCCC3	Active
O=C(Nc1ccccc1)Nc1ccc(Cl)cc1[N+](=O)[O-]	Active
Nc1c(S(=O)(=O)c2ccc(Cl)cc2)cnc2cc(-c3ccccc3)nn12	Active
CCCCC(CC)CNC(=N)NC(=N)NCCCCCCNC(=N)NC(=N)NCC(CC)CCCC.Cl.Cl (stereo not given) [ALEXIDINE DIHYDROCHLORIDE]	Active

Query block: Sample O=S(=O)(Nc1ccc(N2CCCCC2)cc1)c1cc(Cl)sc1Cl — what was its inhibition?
Result block: Active

====

# Experiment summary: Cytotoxicity against human HeLa cells after 24 hrs by XTT assay
# Assay type: cell-based
Measurement name: MCC at 24 h (µM)
Give the value in µM but do not write µM after it.

Compound	MCC at 24 h (µM)
O=S(=O)(Nc1ccc(N2CCCCC2)cc1)c1cc(Cl)sc1Cl	17
Cc1nc2sc3c(c2c(=O)o1)CCCC3	184
O=C(Nc1ccccc1)Nc1ccc(Cl)cc1[N+](=O)[O-]	20
CCCCC(CC)CNC(=N)NC(=N)NCCCCCCNC(=N)NC(=N)NCC(CC)CCCC.Cl.Cl (stereo not given) [ALEXIDINE DIHYDROCHLORIDE]	2

Okay, next one:
Query block: Sample Nc1c(S(=O)(=O)c2ccc(Cl)cc2)cnc2cc(-c3ccccc3)nn12 — what was its MCC at 24 h?
Result block: 22

====

# Experiment summary: Lipophilicity, log P of the compound
# Type: physicochemical
# Protocol conditions: octanol/water
Measurement name: logP

Smiles text	logP
Nc1c(S(=O)(=O)c2ccc(Cl)cc2)cnc2cc(-c3ccccc3)nn12	3.3
Cc1nc2sc3c(c2c(=O)o1)CCCC3	2.8
O=C(Nc1ccccc1)Nc1ccc(Cl)cc1[N+](=O)[O-]	3.7
O=S(=O)(Nc1ccc(N2CCCCC2)cc1)c1cc(Cl)sc1Cl	3.9
